Target sequence: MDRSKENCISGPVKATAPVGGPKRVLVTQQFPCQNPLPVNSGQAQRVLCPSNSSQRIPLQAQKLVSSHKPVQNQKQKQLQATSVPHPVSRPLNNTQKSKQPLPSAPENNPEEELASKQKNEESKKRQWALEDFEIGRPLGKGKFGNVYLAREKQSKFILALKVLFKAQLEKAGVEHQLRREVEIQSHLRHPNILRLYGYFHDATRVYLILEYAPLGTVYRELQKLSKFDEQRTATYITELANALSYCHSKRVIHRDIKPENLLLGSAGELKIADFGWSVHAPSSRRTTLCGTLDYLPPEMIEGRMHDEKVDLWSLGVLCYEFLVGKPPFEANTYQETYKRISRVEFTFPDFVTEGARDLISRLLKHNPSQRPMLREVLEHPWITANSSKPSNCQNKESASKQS
Hi there, I'd appreciate the recorded pIC50 for every entry that follows.
Answers are plain numbers, as −log10 of the molar value.

molecule: CN1CCCC1CCNc1nccc(-c2cccnc2Oc2ccc(Nc3nc4ccccc4[nH]3)c3ccccc23)n1 (stereo unspecified)
pIC50: 6.49

molecule: CNc1nccc(-c2cccnc2Oc2ccc(Nc3nc4cc(C(F)(F)F)ccc4[nH]3)c3ccccc23)n1
pIC50: 7.80

Take each entry in turn and give its pIC50.
1. CNc1nccc(-c2cccnc2Oc2ccc(Nc3nc4ccccc4s3)c3ccccc23)n1
2. CCN1CCC(CNc2nccc(-c3cccnc3Oc3ccc(Nc4nc5ccccc5[nH]4)c4ccccc34)n2)CC1
3. CNc1nccc(-c2cccnc2Oc2ccc(NC(=O)Nc3ccccc3)c3ccccc23)n1
4. CNc1nccc(-c2cccnc2Oc2ccc(Nc3nc4ccccc4o3)c3ccccc23)n1

Result:
[6.42, 6.48, 7.28, 6.85]

---

Reported IC50, Angiopoietin-1 receptor (Homo sapiens, UniProt Q02763).
Answers are plain numbers, in nM.

compound: CN1CCCC1CCNc1nccc(-c2cccnc2Oc2ccc(Nc3nc4ccccc4[nH]3)c3ccccc23)n1 (configuration not stated)
unit info: nM
IC50: 2

As a next step, examine the compound that follows.
Q: Suppose we examine the compound `CCN1CCC(CNc2nccc(-c3cccnc3Oc3ccc(Nc4nc5ccccc5[nH]4)c4ccccc34)n2)CC1` ; what IC50 value has been reported?
Result: 1

---

Provide the recorded IC50 for the entries that follow.
molecular target: Aurora kinase B (Homo sapiens)
Sequence (Q96GD4 whole entry): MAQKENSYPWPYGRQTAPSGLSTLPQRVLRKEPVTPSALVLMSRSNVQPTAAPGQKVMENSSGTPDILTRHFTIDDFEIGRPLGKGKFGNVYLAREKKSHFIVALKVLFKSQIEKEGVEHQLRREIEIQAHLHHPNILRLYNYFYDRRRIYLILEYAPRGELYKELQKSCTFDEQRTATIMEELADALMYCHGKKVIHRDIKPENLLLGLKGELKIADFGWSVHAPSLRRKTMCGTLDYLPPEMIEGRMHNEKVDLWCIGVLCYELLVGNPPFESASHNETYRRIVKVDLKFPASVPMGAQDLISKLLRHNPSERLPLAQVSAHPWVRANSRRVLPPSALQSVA
Numbers only, in nM.

Worked cases, IC50 given:
molecule: CNc1nccc(-c2cccnc2Oc2ccc(Nc3nc4ccccc4o3)c3ccccc23)n1
property label: IC50
measured value: 134
//
molecule: CNc1nccc(-c2cccnc2Oc2ccc(Nc3nc4cc(C(F)(F)F)ccc4[nH]3)c3ccccc23)n1
property label: IC50
measured value: 56
//
molecule: CN1CCCC1CCNc1nccc(-c2cccnc2Oc2ccc(Nc3nc4ccccc4[nH]3)c3ccccc23)n1 (stereo not given)
property label: IC50
measured value: 47
//
molecule: CNc1nccc(-c2cccnc2Oc2ccc(Nc3nc4ccncc4[nH]3)c3ccccc23)n1
property label: IC50
measured value: 454
//
molecule: CNc1nccc(-c2cccnc2Oc2ccc(Nc3nc4ccccc4[nH]3)c3ccccc23)n1
property label: IC50
measured value: 9

Give measured IC50 for every item shown.
1. CNc1nccc(-c2cccnc2Oc2ccc(NC(=O)Nc3ccccc3)c3ccccc23)n1
2. CCN1CCC(CNc2nccc(-c3cccnc3Oc3ccc(Nc4nc5ccccc5[nH]4)c4ccccc34)n2)CC1
3. CNc1nccc(-c2cccnc2Oc2ccc(Nc3nc4ccccc4s3)c3ccccc23)n1
4. CNc1nccc(-c2cccnc2Oc2c(C)cc(Nc3nc4ccccc4[nH]3)c3ccccc23)n1

Result:
[23, 100, 143, 77]

Q: Request: IC50, test system Aurora kinase B (Homo sapiens), entry `CN(C)CC(C)(C)CNc1nccc(-c2cccnc2Oc2ccc(Nc3nc4ccccc4[nH]3)c3ccccc23)n1`
Result: 759

---

molecular target: Aurora kinase B (Homo sapiens); experiment: Inhibition of Aurora B at 1 uM relative to control; values are per cent of control
property label: residual activity (%)
Answers are plain numbers, in %.

Solved cases (8 shown):
compound: CNc1nccc(-c2cccnc2Oc2ccc(Nc3nc4ccccc4[nH]3)c3ccccc23)n1
property label: residual activity
unit info: %
measured value: 1

compound: CNc1nccc(-c2cccnc2Oc2ccc(NC(=O)NC(C)(C)C)c3ccccc23)n1
property label: residual activity
unit info: %
measured value: 5

compound: CNc1nccc(-c2cccnc2Oc2c(C)cc(Nc3nc4ccccc4[nH]3)c3ccccc23)n1
property label: residual activity
unit info: %
measured value: 7

compound: CNc1nccc(-c2cccnc2Oc2ccc(NC(=O)Nc3ccccc3)c3ccccc23)n1
property label: residual activity
unit info: %
measured value: 2

compound: CCN1CCC(CNc2nccc(-c3cccnc3Oc3ccc(Nc4nc5ccccc5[nH]4)c4ccccc34)n2)CC1
property label: residual activity
unit info: %
measured value: 9

compound: CNc1nccc(-c2cccnc2Oc2ccc(Nc3nc4ccccc4o3)c3ccccc23)n1
property label: residual activity
unit info: %
measured value: 12

compound: CNc1nccc(-c2cccnc2Oc2ccc(Nc3nc4ccc(C(F)(F)F)cc4[nH]3)c3ccccc23)n1
property label: residual activity
unit info: %
measured value: 5

compound: CNc1nccc(-c2cccnc2Oc2ccc(Nc3nc4ccncc4[nH]3)c3ccccc23)n1
property label: residual activity
unit info: %
measured value: 31

Parameter requested: residual activity. Apply to each item below.
1. CN(C)CC(C)(C)CNc1nccc(-c2cccnc2Oc2ccc(Nc3nc4ccccc4[nH]3)c3ccccc23)n1
2. CN1CCCC1CCNc1nccc(-c2cccnc2Oc2ccc(Nc3nc4ccccc4[nH]3)c3ccccc23)n1 (stereo unspecified)
3. CNc1nccc(-c2cccnc2Oc2ccc(Nc3nc4ccccc4s3)c3ccccc23)n1

Result:
1: 43; 2: 4; 3: 13

---

biological target: Aurora kinase A (Homo sapiens); assay: Inhibition of Aurora A at 1 uM relative to control; values are per cent of control
Kind request: treat 5% as inclusive, so residual activity at 5% or higher is class 1, anything lower is class 0.

molecule: CN(C)CC(C)(C)CNc1nccc(-c2cccnc2Oc2ccc(Nc3nc4ccccc4[nH]3)c3ccccc23)n1
answer label: class 1
--
molecule: CNc1nccc(-c2cccnc2Oc2ccc(Nc3nc4ccccc4s3)c3ccccc23)n1
answer label: class 1
--
molecule: CNc1nccc(-c2cccnc2Oc2ccc(NC(=O)NC(C)(C)C)c3ccccc23)n1
answer label: class 1
--
molecule: CCN1CCC(CNc2nccc(-c3cccnc3Oc3ccc(Nc4nc5ccccc5[nH]4)c4ccccc34)n2)CC1
answer label: class 1
--
molecule: CNc1nccc(-c2cccnc2Oc2c(C)cc(Nc3nc4ccccc4[nH]3)c3ccccc23)n1
answer label: class 0
--
molecule: CN1CCCC1CCNc1nccc(-c2cccnc2Oc2ccc(Nc3nc4ccccc4[nH]3)c3ccccc23)n1 (stereo unspecified)
answer label: class 1
--
molecule: CNc1nccc(-c2cccnc2Oc2ccc(Nc3nc4ccccc4[nH]3)c3ccccc23)n1
answer label: class 0
--
molecule: CNc1nccc(-c2cccnc2Oc2ccc(Nc3nc4ccccc4o3)c3ccccc23)n1
answer label: class 1

Q: Hello, I need to know if `CNc1nccc(-c2cccnc2Oc2ccc(Nc3nc4ccc(C(F)(F)F)cc4[nH]3)c3ccccc23)n1` has measured residual activity not below 5%. Thanks!
Result: class 0

Q: Is reported residual activity greater than or equal to 5% here: `CNc1nccc(-c2cccnc2Oc2ccc(Nc3nc4ccncc4[nH]3)c3ccccc23)n1`
Result: class 1

---

experiment: Selectivity ratio of IC50 for Aurora A to IC50 for Tie2
Label criterion met when Ratio IC50 is at or above 9; anything below gets criterion not met.

Q: hey, is Ratio IC50 for this one >= 9? `CN(C)CC(C)(C)CNc1nccc(-c2cccnc2Oc2ccc(Nc3nc4ccccc4[nH]3)c3ccccc23)n1`
Result: criterion met

Q: Tell me whether Ratio IC50 is at least 9 here: `CCN1CCC(CNc2nccc(-c3cccnc3Oc3ccc(Nc4nc5ccccc5[nH]4)c4ccccc34)n2)CC1`
Result: criterion met

Q: Check this molecule for Ratio IC50 at or above 9: `CNc1nccc(-c2cccnc2Oc2ccc(NC(=O)NC(C)(C)C)c3ccccc23)n1`
Result: criterion not met

Q: Quick check, Ratio IC50 >= 9? CN1CCCC1CCNc1nccc(-c2cccnc2Oc2ccc(Nc3nc4ccccc4[nH]3)c3ccccc23)n1 (stereo not given)
Result: criterion met

Q: Answer whether Ratio IC50 of `CNc1nccc(-c2cccnc2Oc2ccc(NC(=O)Nc3ccccc3)c3ccccc23)n1` is greater than or equal to 9.
Result: criterion met

---

Would you kindly list Ratio IC50 for each of these molecules?
assay: Selectivity ratio of IC50 for Aurora A to IC50 for Tie2
Give bare numbers.

The cases that follow already have their Ratio IC50 on record.
smiles repr: CNc1nccc(-c2cccnc2Oc2ccc(Nc3nc4ccc(C(F)(F)F)cc4[nH]3)c3ccccc23)n1
Ratio IC50: 1
--
smiles repr: CNc1nccc(-c2cccnc2Oc2ccc(Nc3nc4ccncc4[nH]3)c3ccccc23)n1
Ratio IC50: 12
--
smiles repr: CNc1nccc(-c2cccnc2Oc2ccc(Nc3nc4ccccc4o3)c3ccccc23)n1
Ratio IC50: 9

Batch lookup, Ratio IC50 per entry.
1. CNc1nccc(-c2cccnc2Oc2ccc(Nc3nc4ccccc4[nH]3)c3ccccc23)n1
2. CNc1nccc(-c2cccnc2Oc2ccc(Nc3nc4ccccc4s3)c3ccccc23)n1

Result:
1: 14; 2: 9
